meta.source: patent US20250101120A1

Biological target: T1, hFc-hFasL (fusion protein of human Fc fragment and human FasL extracellular region) (human, UniProt P48023 134-281)
T1 sequence: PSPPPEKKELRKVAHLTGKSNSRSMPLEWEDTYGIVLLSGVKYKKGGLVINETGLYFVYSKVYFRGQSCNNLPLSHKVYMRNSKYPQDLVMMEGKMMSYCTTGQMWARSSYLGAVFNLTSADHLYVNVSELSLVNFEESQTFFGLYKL
Assay: cell-based or functional assay
Measured Jurkat IC50(nM), FasL antigen-induced cell apoptosis values are reported for all entries that follow.
Quick reminder: number only, in nM, skip the unit.

Here is how some binders turned out for Jurkat IC50(nM), FasL antigen-induced cell apoptosis.
# BINDER, MEASURED_RESULT
data = [
    ("humFL-M54-8 (antibody, human IgG4, V domains shown) VH: QVQLVQSGAEVKKPGSSVKVSCKASGYTFTRFDISWVRQAPGQGLEWMGWIFPGDGSSQYNENFKGRATITTDKSTSTAYMELSSLRSEDTAVYFCARSLISTAMFDHWGQGTLVTVSS VL: EIVMTQSPATLSVSPGERATLSCRASKSVSTSDFSYIHWYQQKPGQPPRLLIYLASHLESGIPARFSGSGSGTEFTLTISSLQSEDFAVYYCQHSRELPRTFGQGTKVEIK", 0.044),
    ("humFL-M54-9 (antibody, human IgG4, V domains shown) VH: QVQLVQSGAEVKKPGSSVKVSCKASGYTFTRFDISWVRQAPGQGLEWMGWIFPGDGSSQYNENFKGRVTLTTDKSTSTAYMELSSLRSEDTAVYFCARSLISTAMFDHWGQGTLVTVSS VL: EIVMTQSPATLSVSPGERATLSCRASKSVSTSDFSYIHWYQQKPGQPPRLLIYLASHLESGIPARFSGSGSGTEFTLTISSLQSEDFAVYYCQHSRELPRTFGQGTKVEIK", 0.035),
    ("humFL-M54-2 (antibody, human IgG4, V domains shown) VH: QVQLVQSGAEVKKPGSSVKVSCKASGYTFTRFDISWVRQAPGQGLEWMGWIFPGDGSSQYNENFKGRATLTTDKSTSTAYMELSSLRSEDTAVYFCARSLISTAMFDHWGQGTLVTVSS VL: EIVMTQSPATLSVSPGERATLSCRASKSVSTSDFSYIHWYQQKPGQPPRLLIFLASHLESGIPARFSGSGSGTEFTLTISSLQSEDFAVYYCQHSRELPRTFGQGTKVEIK", 0.028),
    ("humFL-M54-15 (antibody, human IgG4, V domains shown) VH: QVQLVQSGAEVKKPGSSVKVSCKASGYTFTRFDISWVRQAPGQGLEWMGWIFPGDGSSQYNENFKGRVTITADKSTSTAYMELSSLRSEDTAVYFCARSLISTAMFDHWGQGTLVTVSS VL: EIVMTQSPATLSVSPGERATLSCRASKSVSTSDFSYIHWYQQKPGQAPRLLIYLASHLESGIPARFSGSGSGTEFTLTISSLQSEDFAVYYCQHSRELPRTFGQGTKVEIK", 0.015),
]

Give recorded Jurkat IC50(nM), FasL antigen-induced cell apoptosis. humFL-M54-1 (antibody, human IgG4, V domains shown) VH: QVQLVQSGAEVKKPGSSVKVSCKASGYTFTRFDISWVRQAPGQGLEWIGWIFPGDGSSQYNENFKGRATLTTDKSTSTAYMELSSLRSEDTAVYFCARSLISTAMFDHWGQGTLVTVSS VL: EIVMTQSPATLSVSPGERATLSCRASKSVSTSDFSYIHWYQQKPGQPPRLLIFLASHLESGIPARFSGSGSGTEFTLTISSLQSEDFAVYYCQHSRELPRTFGQGTKVEIK
0.035

Give recorded Jurkat IC50(nM), FasL antigen-induced cell apoptosis. humFL-M54-14 (antibody, human IgG4, V domains shown) VH: QVQLVQSGAEVKKPGSSVKVSCKASGYTFTRFDISWVRQAPGQGLEWMGWIFPGDGSSQYNENFKGRVTLTTDKSTSTAYMELSSLRSEDTAVYFCARSLISTAMFDHWGQGTLVTVSS VL: EIVMTQSPATLSVSPGERATLSCRASKSVSTSDFSYIHWYQQKPGQAPRLLIYLASHLESGIPARFSGSGSGTEFTLTISSLQSEDFAVYYCQHSRELPRTFGQGTKVEIK
0.038

Give recorded Jurkat IC50(nM), FasL antigen-induced cell apoptosis. humFL-M54-5 (antibody, human IgG4, V domains shown) VH: QVQLVQSGAEVKKPGSSVKVSCKASGYTFTRFDISWVRQAPGQGLEWMGWIFPGDGSSQYNENFKGRVTITADKSTSTAYMELSSLRSEDTAVYFCARSLISTAMFDHWGQGTLVTVSS VL: EIVMTQSPATLSVSPGERATLSCRASKSVSTSDFSYIHWYQQKPGQPPRLLIFLASHLESGIPARFSGSGSGTEFTLTISSLQSEDFAVYYCQHSRELPRTFGQGTKVEIK
0.052

Give recorded Jurkat IC50(nM), FasL antigen-induced cell apoptosis. humFL-M54-12 (antibody, human IgG4, V domains shown) VH: QVQLVQSGAEVKKPGSSVKVSCKASGYTFTRFDISWVRQAPGQGLEWMGWIFPGDGSSQYNENFKGRATLTTDKSTSTAYMELSSLRSEDTAVYFCARSLISTAMFDHWGQGTLVTVSS VL: EIVMTQSPATLSVSPGERATLSCRASKSVSTSDFSYIHWYQQKPGQAPRLLIYLASHLESGIPARFSGSGSGTEFTLTISSLQSEDFAVYYCQHSRELPRTFGQGTKVEIK
0.015

Give recorded Jurkat IC50(nM), FasL antigen-induced cell apoptosis. humFL-M54-13 (antibody, human IgG4, V domains shown) VH: QVQLVQSGAEVKKPGSSVKVSCKASGYTFTRFDISWVRQAPGQGLEWMGWIFPGDGSSQYNENFKGRATITTDKSTSTAYMELSSLRSEDTAVYFCARSLISTAMFDHWGQGTLVTVSS VL: EIVMTQSPATLSVSPGERATLSCRASKSVSTSDFSYIHWYQQKPGQAPRLLIYLASHLESGIPARFSGSGSGTEFTLTISSLQSEDFAVYYCQHSRELPRTFGQGTKVEIK
0.028
